Could you please report measured pIC50 for the items listed next?
# Measured on: BRD4 BD2 (Homo sapiens)
# Procedure details: AlphaScreen binding assay, BRD4 Bromodomain 2
pIC50: −log10 of the molar value.

For orientation, consider the following solved cases.
- Compound: "COc1cc(OC(=O)N2C[C@H](C)N(C(C)=O)c3ccc(-c4cnn(C5CC5)c4)cc32)c(Cl)cn1"
  pIC50: "6.30 to 7.30"
- Compound: "CC(=O)N1c2ccc(-c3ccc(S(C)(=O)=O)cc3)cc2N(C(=O)NCc2ccco2)C[C@@H]1C"
  pIC50: "< 6.30"
- Compound: "CC(=O)N1c2ccc(-c3ccc(N4CCCC4=O)cc3)cc2N(C(=O)OC2CCCCC2)C[C@@H]1C"
  pIC50: "6.30 to 7.30"
- Compound: "CC(=O)N1c2ccc(-c3ccc(NS(C)(=O)=O)cc3)cc2N(C(=O)c2ccco2)C[C@@H]1C"
  pIC50: "> 7.30"
- Compound: "CC(=O)N1c2ccc(-c3ccc(F)c(S(C)(=O)=O)c3)cc2N(C(=O)C2CC2)C[C@@H]1C"
  pIC50: "6.30 to 7.30"
- Compound: "COC(=O)N1c2ccc(-c3ccc(C(=O)N4CC[C@H](N(C)C)C4)cc3)cc2N(C(=O)OC(C)C)C[C@@H]1C"
  pIC50: "6.30 to 7.30"
- Compound: "CC(C)OC(=O)N1C[C@H](C)N(C(=O)C2CC2)c2ccc(-c3cnn(CC(=O)N(C)C4CC4)c3)cc21"
  pIC50: "6.30 to 7.30"
- Compound: "CCOC(=O)N1C[C@H](C)N(C(C)=O)c2ccc(-c3cnn(C4CC4)c3)cc21"
  pIC50: "6.30 to 7.30"

Required: pIC50, one value per compound below.
1. COC(=O)Nc1cc2c(cc1-c1cnn(C3CC3)c1)N(C(=O)OC(C)C)C[C@H](C)N2C(C)=O
2. CC(=O)N1c2ccc(-c3cnn(C4COC4)c3)cc2N(C(=O)C(F)F)C[C@@H]1C
3. COc1ccc2[nH]c(C(=O)N3CC(C)N(C(C)=O)c4ccc(-c5ccc(S(C)(=O)=O)cc5)cc43)cc2c1 (stereo not drawn)
4. CC(=O)N1c2ccc(-c3ccc(C(=O)N4C[C@@H]5C[C@H]4CN5)cc3)cc2N(C(=O)OC(C)C)C[C@@H]1C
5. CC(=O)N1c2ccc(-c3ccc(S(C)(=O)=O)cc3)cc2N(C(=O)c2oc3ccccc3c2-c2ccccc2)C[C@@H]1C

Ans.
6.30 to 7.30
6.30 to 7.30
6.30 to 7.30
6.30 to 7.30
< 6.30

Report pIC50 for each item below.
1. CC(C)OC(=O)N1C[C@H](C)N(C(=O)C2CC2)c2ccc(-c3cnn(CC(F)(F)F)c3)cc21
2. CC(=O)N1c2ccc(-c3cccc(NS(C)(=O)=O)c3)cc2N(C(=O)C2CCC2)C[C@@H]1C
3. CC(=O)N1c2ccc(-c3ccc(S(C)(=O)=O)cc3)cc2N(C(=O)CC2CCCC2)C[C@@H]1C

Ans.
1. 6.30 to 7.30
2. 6.30 to 7.30
3. 6.30 to 7.30

Hi! Can you tell me pIC50 for each of these compounds?
1. CC(=O)N1c2ccc(-c3cnn(CCC#N)c3)cc2N(C(=O)Oc2ccccn2)C[C@@H]1C
2. CC(=O)N1c2ccc(-c3cnn(C4CC4)c3)cc2N(C(=O)Oc2cccc(C)c2)C[C@@H]1C

Ans.
["6.30 to 7.30", "6.30 to 7.30"]

These measurements were taken from patent US10703764B2.
